# MEASURED ON: SIK1 (Homo sapiens)
# Construct: purchased Carna Biosciences 02-131
# EXPERIMENT DESCRIPTION: 33P radioactive kinase assay, SIK1
# Type: biochemical
pIC50: −log10 of the molar value.
I'd appreciate it if you could supply pIC50 values for the items below.

COMPOUND | pIC50
COc1cc(-c2cnc3cc(C4CCCNC4)ccn23)cc(OC)c1C(=O)NCC(F)(F)F (stereo not drawn) [Cpd 23] | < 6.30
COc1cc(-n2cnc3cc(C4CCCN(C)C4)ccc32)cc(OC)c1C(=O)NCC(F)(F)F (stereo not drawn) [Cpd 6] | < 6.30
COc1cc(-c2cnc3cc(C4CCN(C)CC4)ccn23)cc(OC)c1C(=O)NCC(F)(F)F [Cpd 22] | < 6.30
COc1cc(-c2cnc3cc(C(C)(C)C#N)ccn23)cc(OC)c1C(=O)NCC#N [Cpd 32] | < 6.30

I would be grateful if you could provide pIC50 for each of the following entries.
1. COc1cc(-c2cnc3cc(C(C)(C)C#N)ccn23)cc2c1C(=O)N(CC(F)(F)F)CC2 [Cpd 25]
2. COc1cc(-n2cnc3cc(C4CCN(C(=O)OC(C)(C)C)CC4)ccc32)cc(OC)c1C(=O)NCC(F)(F)F [Cpd 2]
3. COc1cc(-c2cnc3cc(C(C)(C)C#N)ccn23)cc(OC(F)F)c1C(=O)NC1CC1 [Cpd 19]
4. COc1cc(-n2cnc3cc(C4CCCN(C(=O)OC(C)(C)C)C4)ccc32)cc(OC)c1C(=O)NCC(F)(F)F (stereo not drawn) [Cpd 7]

1. < 6.30
2. < 6.30
3. < 6.30
4. < 6.30

Would you mind telling me what pIC50 value was observed for COc1cc(-n2cnc3cc(C4CCOCC4)ccc32)cc(OC)c1C(=O)NCC(F)(F)F [Cpd 5] ?
< 6.30

---

# MEASURED ON: SIK2 (Homo sapiens)
# Construct: purchased ThermoFisher Scientific PV4792
# EXPERIMENT DESCRIPTION: ADP-Glo kinase assay, SIK2
# Assay type: biochemical
pIC50: −log10 of the molar value.
I'd appreciate it if you could supply pIC50 values for the items below.

COMPOUND | pIC50
COc1cc(-c2cnc3cc(C4(C)CN(C)CCO4)ccn23)cc(OC(F)F)c1C(=O)NCC(F)(F)F (stereo not shown) | < 6.30
COc1cc(-c2cnn3cc(C4CCOCC4)cnc23)cc(OC(F)F)c1C(=O)NC1CC1 | 6.30 to 7.00
COc1cc(-c2cnc3cc(C(C)(O)Cn4cncn4)ccn23)cc(OC(F)F)c1C(=O)NC1CC1 (stereo not shown) | < 6.30
COc1cc(-c2cnc3cc(C4COC4)ccn23)cc(OC(F)F)c1C(=O)NC1CC1 | 7.00 to 8.00
COc1cc(-c2cnc3cc(C4(C#N)COC4)ccn23)cc(OC(F)F)c1C(=O)NC1CC1 | < 6.30
CCN(CC)C(C)c1ccn2c(-c3cc(OC)c(C(=O)NC4CC4)c(OC(F)F)c3)cnc2c1 (stereo not shown) | < 6.30
CCC(CC)(OC)c1ccn2c(-c3cc(OC)c(C(=O)NC4CC4)c(OC(F)F)c3)cnc2c1 | < 6.30
COc1cc(-c2cnc3cc(C4COCCN4C(=O)OC(C)(C)C)ccn23)cc(OC(F)F)c1C(=O)NC1CC1 (stereo not shown) | < 6.30
COc1cc(-c2cnc3cc(C4(C#N)COC4)ccn23)cc(OC(F)F)c1C(=O)N[C@@H]1C[C@@H]1F | < 6.30
COc1cc(-c2cnc3cc(C(C)(C)C#N)ccn23)cc2c1C(=O)NCC2 | < 6.30

I would be grateful if you could provide pIC50 for each of the following entries.
1. COc1cc(-c2cnc3cc(C(C)(C)C#N)ccn23)cc(OC(F)F)c1C(=O)N1CC(O)(C2CC2)C1
2. COc1cc(-c2cnc3cc(C(C)(C)C#N)ccn23)cnc1C(=O)NCC(F)(F)F
3. COc1cc(-c2cnc3cc(C4CCCN(C)C4)ccn23)cc(OC(F)F)c1C(=O)NC1CC1 (stereo not shown)

["< 6.30", "< 6.30", "7.00 to 8.00"]

---

# MEASURED ON: SIK1 (Homo sapiens, UniProt P57059)
# Construct: purchased Carna Biosciences 02-131
# Sequence (P57059 whole entry): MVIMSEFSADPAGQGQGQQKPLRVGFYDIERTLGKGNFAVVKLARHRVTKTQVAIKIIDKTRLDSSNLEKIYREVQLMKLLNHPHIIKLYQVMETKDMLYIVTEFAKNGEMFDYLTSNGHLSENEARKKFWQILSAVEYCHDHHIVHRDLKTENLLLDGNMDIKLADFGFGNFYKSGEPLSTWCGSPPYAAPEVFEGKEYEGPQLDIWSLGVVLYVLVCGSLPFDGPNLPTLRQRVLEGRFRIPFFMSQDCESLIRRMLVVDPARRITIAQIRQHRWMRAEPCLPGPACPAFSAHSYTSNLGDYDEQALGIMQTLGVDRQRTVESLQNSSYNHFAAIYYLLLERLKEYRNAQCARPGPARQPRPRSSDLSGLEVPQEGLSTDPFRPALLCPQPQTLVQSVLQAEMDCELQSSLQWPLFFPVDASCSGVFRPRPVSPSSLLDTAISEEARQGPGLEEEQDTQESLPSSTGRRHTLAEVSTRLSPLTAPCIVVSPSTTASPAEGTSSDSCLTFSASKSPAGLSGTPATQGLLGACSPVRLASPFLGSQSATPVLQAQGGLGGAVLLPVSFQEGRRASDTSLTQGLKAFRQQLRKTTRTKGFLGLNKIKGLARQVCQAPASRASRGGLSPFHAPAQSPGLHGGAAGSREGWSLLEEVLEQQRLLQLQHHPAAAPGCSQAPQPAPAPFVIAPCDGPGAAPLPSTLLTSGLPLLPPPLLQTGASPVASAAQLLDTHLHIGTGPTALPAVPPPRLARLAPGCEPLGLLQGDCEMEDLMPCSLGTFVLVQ
# EXPERIMENT DESCRIPTION: ADP-Glo kinase assay, SIK1
# Type: biochemical
MEASURED METRIC: IC50

Below, each entry is followed by its recorded IC50 result.
MOLECULE | MEASURED ON | MEASURED VALUE
COc1cc(-c2cnc3cc(C(C)(C)N4CCOCC4)ccn23)cc(OC(F)F)c1C(=O)NC1CC1 [Cpd 226] | SIK1 (Homo sapiens, UniProt P57059) | > 0.5 µM
CCC(O)(CC)c1ccn2c(-c3cc(OC)c(C(=O)NC4CC4)c(OC(F)F)c3)cnc2c1 [Cpd 124] | SIK1 (Homo sapiens, UniProt P57059) | > 0.5 µM
COc1cc(-c2cnc3cc(C(C)(C)C#N)ccn23)cc(OC(F)F)c1C(=O)N[C@@H]1C[C@@H]1F [Cpd 79] | SIK1 (Homo sapiens, UniProt P57059) | > 0.5 µM
COc1cc(-c2cnc3cc(C(C)(C)C(C)O)ccn23)cc(OC(F)F)c1C(=O)NC1CC1 (centres unmarked) [Cpd 172] | SIK1 (Homo sapiens, UniProt P57059) | > 0.5 µM
COc1cc(-c2cnc3cc(C4CN(C(C)=O)C4)ccn23)cc(OC(F)F)c1C(=O)NC1CC1 [Cpd 63] | SIK1 (Homo sapiens, UniProt P57059) | 0.1 to 0.5 µM
COc1cc(-c2cnc3cc(C(C)(C)CN4CCCC4)ccn23)cc(OC(F)F)c1C(=O)NC1CC1 [Cpd 161] | SIK1 (Homo sapiens, UniProt P57059) | > 0.5 µM
COc1cc(-c2cnn3cc(C(C)(C)C#N)ccc23)cc(OC(F)F)c1C(=O)NC1CC1 [Cpd 208] | SIK1 (Homo sapiens, UniProt P57059) | > 0.5 µM
COc1cc(-c2cnc3cc(C(C)(O)Cn4cccn4)ccn23)cc(OC(F)F)c1C(=O)NC1CC1 (centres unmarked) [Cpd 192] | SIK1 (Homo sapiens, UniProt P57059) | > 0.5 µM

I would be grateful if you could provide IC50 for each of the following entries.
1. COc1cc(-c2cnc3cc(C(C)(C)C#N)ccn23)cc(OC(F)F)c1C(=O)N1CC(NC(=O)OC(C)(C)C)C1 [Cpd 94]
2. COc1cc(-c2cnc3cc(C(C)(C)C#N)ccn23)cc(OC(F)F)c1C(=O)N1CC(CO)C1 [Cpd 97]
3. COc1cc(-c2cnc3cc(C(C)(C)C#N)ccn23)cc(OC(F)F)c1C(=O)N1CCS(=O)(=O)CC1 [Cpd 38]
4. COCCN1CCCC1c1ccn2c(-c3cc(OC)c(C(=O)NC4CC4)c(OC(F)F)c3)cnc2c1 (centres unmarked) [Cpd 196]

1. > 0.5 µM
2. > 0.5 µM
3. > 0.5 µM
4. 0.1 to 0.5 µM

---

# MEASURED ON: SIK1 (Homo sapiens)
# Construct: purchased Carna Biosciences 02-131
# EXPERIMENT DESCRIPTION: ADP-Glo kinase assay, SIK1
# Type: biochemical
# MEASUREMENT PARAMETERS: ADP-Glo; AMARA 45 μM; 5 μM ATP; 120 min; average IC50
I'd appreciate it if you could supply IC50 values for the items below.

Below, each entry is followed by its recorded IC50 result.
COMPOUND | IC50
CC[C@](C)(O)c1ccn2c(-c3cc(OC)c(C(=O)NC4CC4)c(OC(F)F)c3)cnc2c1 (single isomer, unassigned) | > 500 nM
COc1cc(-c2cnn3cc(C4COCCO4)ccc23)cc(OC(F)F)c1C(=O)N[C@@H]1C[C@@H]1F (stereo partly shown) | 100 to 500 nM
COc1cc(-c2cnc3cc([C@@](C)(C#N)CO)ccn23)cc(OC(F)F)c1C(=O)NC1CC1 (single isomer, unassigned) | > 500 nM

Turning to the following compound.
Would you mind telling me what IC50 value was observed for COc1cc(-c2cnc3cc([C@@](C)(O)C4CC4)ccn23)cc(OC(F)F)c1C(=O)NC1CC1 (single isomer, unassigned) ?
> 500 nM

---

# MEASURED ON: SIK2 (Homo sapiens, UniProt Q9H0K1)
# Construct: purchased ThermoFisher Scientific PV4792
# Sequence (Q9H0K1 whole entry): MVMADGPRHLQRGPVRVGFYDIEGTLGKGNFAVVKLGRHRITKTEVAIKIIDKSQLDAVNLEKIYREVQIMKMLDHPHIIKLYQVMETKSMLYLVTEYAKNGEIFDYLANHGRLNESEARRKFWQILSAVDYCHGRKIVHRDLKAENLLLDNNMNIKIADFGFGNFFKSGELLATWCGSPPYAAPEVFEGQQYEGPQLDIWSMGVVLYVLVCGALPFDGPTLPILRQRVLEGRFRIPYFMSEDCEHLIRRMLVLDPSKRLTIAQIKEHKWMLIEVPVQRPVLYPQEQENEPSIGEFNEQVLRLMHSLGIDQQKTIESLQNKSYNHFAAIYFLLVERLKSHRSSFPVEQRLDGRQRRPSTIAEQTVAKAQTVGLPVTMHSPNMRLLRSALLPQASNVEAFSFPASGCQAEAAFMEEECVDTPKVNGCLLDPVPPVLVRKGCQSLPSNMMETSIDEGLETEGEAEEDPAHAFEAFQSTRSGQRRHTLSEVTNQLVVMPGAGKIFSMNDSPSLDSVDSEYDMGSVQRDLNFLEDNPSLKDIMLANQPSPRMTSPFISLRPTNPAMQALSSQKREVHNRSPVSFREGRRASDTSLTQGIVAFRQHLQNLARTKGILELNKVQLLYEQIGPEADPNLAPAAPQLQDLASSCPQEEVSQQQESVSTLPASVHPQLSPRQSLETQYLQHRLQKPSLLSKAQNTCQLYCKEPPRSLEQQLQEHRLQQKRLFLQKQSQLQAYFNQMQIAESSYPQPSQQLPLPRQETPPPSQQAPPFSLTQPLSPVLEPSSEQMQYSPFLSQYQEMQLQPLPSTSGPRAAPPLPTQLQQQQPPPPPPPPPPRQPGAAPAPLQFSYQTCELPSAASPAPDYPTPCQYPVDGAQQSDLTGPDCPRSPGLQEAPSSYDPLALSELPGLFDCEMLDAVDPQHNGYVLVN
# EXPERIMENT DESCRIPTION: ADP-Glo kinase assay, SIK2
# Format: biochemical
MEASURED METRIC: IC50

COMPOUND | IC50
COC(=O)C1(c2ccn3c(-c4cc(OC)c(C(=O)NC5CC5)c(OC(F)F)c4)cnc3c2)CC1 | > 500 nM
COc1cc(-c2cnc3cc(C4CCOCC4)ccn23)cc(OC)c1C(=O)NCC(F)(F)F | 100 to 500 nM
COC(=O)NC1(c2ccc3c(-c4cc(OC)c(C(=O)N[C@@H]5C[C@@H]5F)c(OC(F)F)c4)cnn3c2)CCC1 | > 500 nM
COc1cc(-c2cnc3cc(C(C)(C)C#N)ccn23)cc(OC(F)F)c1C(=O)NC(C)C | > 500 nM
COc1cc(-c2cnn3cc(C4(C#N)CC4)ccc23)cc(OC(F)F)c1C(=O)N[C@@H]1C[C@@H]1F | 10 to 100 nM
CNC(=O)COCC(C)(C)c1ccc2c(-c3cc(OC)c(C(=O)N[C@@H]4C[C@@H]4F)c(OC(F)F)c3)cnn2c1 | > 500 nM
COc1cc(-c2cnc3cc(C(C)(C)C#N)ccn23)cc(OC(F)F)c1C(=O)NC1CS(=O)(=O)C1 | > 500 nM
COc1cc(-c2cnc3cc(C4CN(C(=O)OC(C)(C)C)C4)ccn23)cc(OC)c1C(=O)NCC(F)(F)F | 100 to 500 nM

I would be grateful if you could provide IC50 for each of the following entries.
1. COc1cc(-c2cnc3cc(C4(C#N)CN(C)C4)ccn23)cc(OC(F)F)c1C(=O)NC1CC1
2. COc1cc(-c2cnc3cc(C4(C#N)CN(C(C)=O)C4)ccn23)cc(OC(F)F)c1C(=O)NC1CC1
3. COc1cc(-c2cnc3cc(C(C)(C)C#N)ccn23)cc(OC(F)F)c1C(=O)N1CCC1C (stereo not shown)
4. COc1cc(-c2cnc3cc(C4(OC)COC4)ccn23)cc(OC(F)F)c1C(=O)NC1CC1
5. COc1cn2c(-c3cc(OC)c(C(=O)NC4CC4)c(OC(F)F)c3)cnc2cc1C1CCOCC1

1: > 500 nM; 2: > 500 nM; 3: > 500 nM; 4: > 500 nM; 5: 100 to 500 nM
